# MEASURED TARGET: UniProtKB P37288
# ASSAY PROTOCOL: In-vitro receptor binding assay (3H-arginine-8-vasopressin), V1a
# ASSAY CONDITIONS: @ 1 μM
QUANTITY MEASURED: Receptor Binding V1a (% Inh. @ concentration in μM) (% @ 1)

INSERT INTO results (molecule, measured_target, display_unit, value_measured) VALUES
  ('C[S+]([O-])c1ccc(C(=O)Nc2ccc(C(=O)N3CCC4(C=CCCC4)Cc4ccccc43)cc2)cc1 (centres unmarked)', 'UniProtKB P37288', '% @ 1', 27);

1. O=C(Nc1ccc(C(=O)N2CCC3(C=CCCC3)Cc3ccccc32)cc1)c1ccc(-c2ccccc2)cc1 (centres unmarked)
2. O=C(Nc1ccc(F)cc1)N1CCC2(C=CCCC2)Cc2ccccc21 (centres unmarked)
3. O=C(c1ccccc1-c1ccccc1)N1CCC2(C=CCCC2)Cc2ccccc21 (centres unmarked)
4. O=C(Nc1ccccc1)N1CCC2(C=CCCC2)Cc2ccccc21 (centres unmarked)
Prompt line: # rank_down: sort by Receptor Binding V1a (% Inh. @ concentration in μM), max first # answer = labels listed in requested order
Response line: 1, 4, 2, 3
(1: 35 % @ 1, 4: 11 % @ 1, 2: 5 % @ 1, 3: 1 % @ 1)

---

# MEASURED TARGET: V1a (Homo sapiens, UniProt P37288)
# Sequence (P37288 whole entry): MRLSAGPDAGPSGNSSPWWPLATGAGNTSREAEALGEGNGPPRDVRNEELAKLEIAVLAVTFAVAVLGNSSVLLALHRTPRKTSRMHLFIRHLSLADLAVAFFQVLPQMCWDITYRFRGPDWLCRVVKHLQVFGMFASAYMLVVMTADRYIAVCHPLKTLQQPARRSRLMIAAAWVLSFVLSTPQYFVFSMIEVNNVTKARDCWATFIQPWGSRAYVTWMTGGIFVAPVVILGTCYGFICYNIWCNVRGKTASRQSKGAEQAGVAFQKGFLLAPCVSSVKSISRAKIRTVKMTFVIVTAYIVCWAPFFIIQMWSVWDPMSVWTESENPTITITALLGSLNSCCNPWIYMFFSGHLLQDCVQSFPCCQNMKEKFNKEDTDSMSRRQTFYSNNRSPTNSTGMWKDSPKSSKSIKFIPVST
# ASSAY PROTOCOL: In-vitro receptor binding assay (3H-arginine-8-vasopressin), V1a
QUANTITY MEASURED: IC50 (µM)

# example entries with known answers
INSERT INTO measurements (compound, display_unit, value_measured) VALUES
  ('O=C(Nc1ccc(C(=O)N2CCC3(C=CCCC3)Cc3ccccc32)cc1)c1ccccc1-c1ccccc1 (stereo not shown)', 'µM', 0.83),
  ('CNCC1=CC2(CC1)CCN(C(=O)c1ccc(NC(=O)c3ccccc3-c3ccccc3)cc1)c1ccccc1C2 (stereo not shown)', 'µM', 0.009),
  ('Cc1ccc(F)cc1C(=O)Nc1ccc(C(=O)C2Cc3ccccc3CC3(C=CCCC3)C2)cc1 (stereo not shown)', 'µM', 0.1),
  ('O=CC1=C[C@@]2(CC1)CCN(C(=O)c1ccc(NC(=O)c3ccccc3F)cc1Cl)c1ccccc1C2', 'µM', 0.008),
  ('O=C(Nc1ccc(C(=O)N2CCC3(C=CCCC3)Cc3ccccc32)cc1)c1ccncc1 (stereo not shown)', 'µM', 0.051),
  ('Cc1ccn(-c2ccc(C(=O)N3CCC4(C=CCCC4)Cc4ccccc43)cc2-n2ccc(C)n2)n1 (stereo not shown)', 'µM', 0.042),
  ('O=C(c1cccc(Br)c1)N1CCC2(C=CCCC2)Cc2ccccc21 (stereo not shown)', 'µM', 5.6),
  ('O=C(Nc1ccc(C(=O)N2CCC3(C=CCCC3)Cc3ccccc32)cc1)c1ccccc1F (stereo not shown) [Compound 101]', 'µM', 0.01),
  ('O=C(c1ccc(-n2cccn2)c(-n2cccn2)c1)N1CCC2(C=CCCC2)Cc2ccccc21 (stereo not shown)', 'µM', 0.13),
  ('Nc1ccc(C(=O)N2CCC3(C=CCCC3)Cc3ccccc32)cc1 (stereo not shown)', 'µM', 0.81);

P. Cc1ccc(F)cc1C(=O)Nc1ccc(C(=O)N2CCC3(C=CCCC3)Cc3ccccc32)c(Cl)c1 (stereo not shown)
Q. Cc1ccc(F)cc1C(=O)Nc1ccc(C(=O)N2CCC3(C=C(C(=O)NCCO)CC3)Cc3ccccc32)c(Cl)c1 (stereo not shown)
R. COc1ccc(C(=O)N2CCC3(C=CCCC3)Cc3ccccc32)cc1 (stereo not shown)
Prompt line: Hey, quick one: sort these by IC50, low to high? # answer = labels listed in requested order
Response line: Q, R, P

I. Nc1ccc(C(=O)Nc2ccc(C(=O)N3CCC4(C=CCCC4)Cc4ccccc43)cc2)cc1 (stereo not shown)
II. COc1cc(NC(=O)c2ccccc2F)ccc1C(=O)N1CCC2(C=CCCC2)Cc2ccccc21 (stereo not shown)
Prompt line: Given I and II , report the one with the higher recorded IC50. Respond using the label that marks the chosen record.
Response line: II
(II: 0.019 µM, I: 0.01 µM)

---

# MEASURED TARGET: V1a (Homo sapiens, UniProt P37288)
# ASSAY PROTOCOL: In-vitro receptor binding assay (3H-arginine-8-vasopressin), V1a
# Method: (A) In-Vitro Binding Assay […] The reaction plates are allowed to sit at room temperature for one hour. The samples are filtered through Unifilter GF/C plates (presoaked in 0.3 polyethyleneimine). The plates are washed 5 times with cold physiological saline containing 0.05% Tween 20. […] The top of the plate is sealed, and the plate is counted. Non-specific binding is determined by the addition of 1.25 μM […]-vasopressin in those wells. % Inh. is calculated as follows: […]
QUANTITY MEASURED: IC50 (µM)

INSERT INTO results (molecule, display_unit, value_measured) VALUES
  ('O=C(Nc1ccc(C(=O)N2CCC3(CCCCC3O)Cc3ccccc32)cc1)c1ccccc1-c1ccccc1 (stereo not shown) [Compound 32]', 'µM', 0.061);

I. CN(C)CCNC(=O)C1=CC2(CC1)CCN(C(=O)c1ccc(N)cc1)c1ccccc1C2 (stereo not shown) [Compound 193]
II. CC(C)CCOc1ccc(C(=O)N2CCC3(C=CCCC3)Cc3ccccc32)cc1 (stereo not shown) [Compound 179]
Prompt line: Compare IC50: is it lower for I or for II ? Respond using the label that marks the chosen record.
Response line: II

---

# MEASURED TARGET: V1a (Homo sapiens)
# ASSAY PROTOCOL: In-vitro receptor binding assay (3H-arginine-8-vasopressin), V1a
QUANTITY MEASURED: IC50 (µM)

INSERT INTO assay_data (molecule, quantity_measured, display_unit, value_measured) VALUES
  ('N#Cc1ccc(C(=O)N2CCC3(C=CCCC3)Cc3ccccc32)cc1 (centres unmarked)', 'IC50', 'µM', 0.13),
  ('O=C(c1ccc(OCC2CCCCC2)cc1)N1CCC2(C=CCCC2)Cc2ccccc21 (centres unmarked)', 'IC50', 'µM', 0.25),
  ('COC(=O)c1ccc(C(=O)N2Cc3ccccc3CC3(C=CCCC3)C2)cc1 (centres unmarked)', 'IC50', 'µM', 0.56),
  ('COc1cc(C(=O)N2CCC3(C=CCCC3)Cc3ccccc32)ccc1NC(=O)c1cc(F)ccc1C (centres unmarked)', 'IC50', 'µM', 0.062),
  ('COC(=O)CNCC1=CC2(CC1)CCN(C(=O)c1ccc(NC(=O)c3cc(F)ccc3C)cc1)c1ccccc1C2 (centres unmarked)', 'IC50', 'µM', 0.007);

I. COc1cc(-n2ccc(C=O)c2)ccc1C(=O)N1CCC2(C=CCCC2)Cc2ccccc21 (centres unmarked)
II. CN(C)CCNC(=O)C1=CC2(CC1)CCN(C(=O)c1ccc(NC(=O)c3cc(F)ccc3F)cc1)c1ccccc1C2 (centres unmarked)
III. Cc1ccccc1C(=O)Nc1ccc(C(=O)C2Cc3ccccc3CC3(C=CCCC3)C2)cc1 (centres unmarked)
IV. COc1cc(-n2ccc(C=O)c2)ccc1C(=O)N1CCC2(C=C(C(=O)NCCN(C)C)CC2)Cc2ccccc21 (centres unmarked)
V. COc1ccc(C(=O)N2Cc3ccccc3CC3(C=CCCC3)C2)cc1OC (centres unmarked)
Prompt line: # rank_down: sort by IC50, max first # answer = labels listed in requested order
Response line: V, IV, I, III, II
(V: 0.55 µM, IV: 0.3 µM, I: 0.114 µM, III: 0.047 µM, II: 0.013 µM)

a. Cc1ccccc1C(=O)Nc1ccc(C(=O)N2CCC3(C=CCCC3)Cc3ccccc32)cc1 (centres unmarked)
b. CN(C)c1ccc(C(=O)N2CCC3(C=CCCC3)Cc3ccccc32)cc1 (centres unmarked) [Compound 45]
Prompt line: Compare IC50: is it lower for a or for b ? Respond using the label that marks the chosen record.
Response line: a

1. CN(C)c1ccc(C(=O)N2CCC3(C=CCCC3)Cc3ccccc32)cc1 (centres unmarked) [Compound 60]
2. O=C(NCCN1CCOCC1)C1=CC2(CC1)CCN(C(=O)c1ccc(NC(=O)c3ccccc3F)cc1)c1ccccc1C2 (centres unmarked)
3. Cc1ccccc1NC(=O)c1ccc(C(=O)N2CCC3(C=CCCC3)Cc3ccccc32)cc1 (centres unmarked)
4. O=C(c1ccncc1)N1CCC2(C=CCCC2)Cc2ccccc21 (centres unmarked)
Prompt line: Hey, quick one: sort these by IC50, low to high? # answer = labels listed in requested order
Response line: 2, 3, 1, 4

1. Cc1ccc(F)cc1C(=O)Nc1ccc(C(=O)N2CCC3(C=C(C(=O)NCCO)CC3)Cc3ccccc32)cc1 (centres unmarked)
2. O=C(c1ccc(-n2ccc(CO)c2)cc1Cl)N1CCC2(C=CCCC2)Cc2ccccc21 (centres unmarked)
Prompt line: Compare IC50: is it lower for 1 or for 2 ? Respond using the label that marks the chosen record.
Response line: 1

I. COC(=O)C1=CC2(CC1)CCN(C(=O)c1ccc(NC(=O)c3ccccc3F)cc1)c1ccccc1C2 (centres unmarked)
II. Cc1cc(F)ccc1C(=O)Nc1ccc(C(=O)N2CCC3(C=CCCC3)Cc3ccccc32)cc1 (centres unmarked) [Compound 100]
Prompt line: Given I and II , report the one with the higher recorded IC50. Respond using the label that marks the chosen record.
Response line: I

P. O=C(Nc1ccc(C(=O)N2CCC3(C=CCCC3)Cc3ccccc32)cc1)c1ccccc1F (single isomer, unassigned) [Compound 109]
Q. Cc1ccc(C(=O)Nc2ccc(C(=O)N3CCC4(C=CCCC4)Cc4ccccc43)cc2)cc1 (centres unmarked)
Prompt line: Compare IC50: is it lower for P or for Q ? Respond using the label that marks the chosen record.
Response line: P
(P: 0.014 µM, Q: 0.074 µM)

Reference for the values: patent US7691844B2
